# TARGET_SYSTEM: α4β1 integrin (Homo sapiens, UniProt P05556+P13612)
# Construct: endogenous in cells; host or cells: Ramos cells
# Sequence (P13612 34-1032): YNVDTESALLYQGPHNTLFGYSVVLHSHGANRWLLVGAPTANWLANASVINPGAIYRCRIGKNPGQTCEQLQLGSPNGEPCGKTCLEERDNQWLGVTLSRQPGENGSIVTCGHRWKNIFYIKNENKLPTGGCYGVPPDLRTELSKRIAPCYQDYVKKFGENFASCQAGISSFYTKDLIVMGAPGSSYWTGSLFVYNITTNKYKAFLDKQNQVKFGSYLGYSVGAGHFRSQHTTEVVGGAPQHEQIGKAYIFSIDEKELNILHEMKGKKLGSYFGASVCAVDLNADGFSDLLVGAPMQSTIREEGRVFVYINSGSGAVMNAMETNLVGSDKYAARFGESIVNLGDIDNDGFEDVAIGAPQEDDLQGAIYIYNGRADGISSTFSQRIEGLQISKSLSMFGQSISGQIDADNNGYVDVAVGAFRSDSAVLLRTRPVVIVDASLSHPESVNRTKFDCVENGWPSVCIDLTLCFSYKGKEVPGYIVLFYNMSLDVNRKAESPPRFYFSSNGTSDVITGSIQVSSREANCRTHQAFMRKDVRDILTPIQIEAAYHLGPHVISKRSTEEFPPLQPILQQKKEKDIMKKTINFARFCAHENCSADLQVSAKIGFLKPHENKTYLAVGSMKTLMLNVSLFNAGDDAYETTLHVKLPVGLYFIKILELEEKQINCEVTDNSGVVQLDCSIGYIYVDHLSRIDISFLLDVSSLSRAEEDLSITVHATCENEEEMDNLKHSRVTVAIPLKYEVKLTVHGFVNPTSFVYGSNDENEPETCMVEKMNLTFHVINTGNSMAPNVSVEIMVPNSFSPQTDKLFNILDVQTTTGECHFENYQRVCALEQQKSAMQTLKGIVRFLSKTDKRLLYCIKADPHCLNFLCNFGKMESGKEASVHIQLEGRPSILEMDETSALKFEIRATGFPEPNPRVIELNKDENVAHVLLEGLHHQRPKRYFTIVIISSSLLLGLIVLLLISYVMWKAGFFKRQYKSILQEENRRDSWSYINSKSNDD
# Sequence (P05556 21-798): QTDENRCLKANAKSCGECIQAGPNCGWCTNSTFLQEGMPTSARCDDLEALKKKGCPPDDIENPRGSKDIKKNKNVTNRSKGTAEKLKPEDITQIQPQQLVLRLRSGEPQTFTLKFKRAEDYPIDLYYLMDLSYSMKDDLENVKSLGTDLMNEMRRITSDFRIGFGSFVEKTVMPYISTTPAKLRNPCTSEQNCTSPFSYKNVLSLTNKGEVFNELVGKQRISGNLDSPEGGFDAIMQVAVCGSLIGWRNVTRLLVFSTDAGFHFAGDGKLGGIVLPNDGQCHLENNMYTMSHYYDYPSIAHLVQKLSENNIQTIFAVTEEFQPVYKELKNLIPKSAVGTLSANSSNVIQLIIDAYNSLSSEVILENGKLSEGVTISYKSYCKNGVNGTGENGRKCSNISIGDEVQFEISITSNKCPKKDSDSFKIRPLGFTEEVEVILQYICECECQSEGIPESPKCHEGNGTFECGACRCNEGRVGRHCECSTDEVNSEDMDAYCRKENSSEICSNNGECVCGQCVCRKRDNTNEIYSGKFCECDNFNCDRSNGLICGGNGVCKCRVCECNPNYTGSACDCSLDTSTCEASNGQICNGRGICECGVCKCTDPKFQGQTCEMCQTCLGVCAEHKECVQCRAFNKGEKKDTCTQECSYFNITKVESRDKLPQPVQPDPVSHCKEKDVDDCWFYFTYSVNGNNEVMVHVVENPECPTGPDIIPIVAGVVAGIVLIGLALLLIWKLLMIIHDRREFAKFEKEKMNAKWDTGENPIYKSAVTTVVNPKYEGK
# METHOD_DESCRIPTION: Adhesion of calcein-labeled Ramos cells to CS1 (fibronectin) peptide conjugated ovalbumin
# Type: cell-based
# PARTICULARS: Table 6; Ramos cell adhesion to CS1 conjugated ovalbumin, 30 minutes at 37° C.
pIC50: −log10 of the molar value.
Would you mind labelling by pIC50? At or over 8 is Condition met, under is Condition not met.

A selection of reference data follows.
MOLECULE	ANSWER_LABEL
Cc1ccc([C@H](CC(=O)O)NC(=O)Nc2c(O)c(C)c(C)n(Cc3ccccc3Cl)c2=O)cc1C	Condition not met
CC(C)Oc1cccc([C@H](CC(=O)O)NC(=O)Nc2c(O)ccn(Cc3ccccc3Cl)c2=O)c1	Condition met
Cc1ccc([C@H](CC(=O)O)NC(=O)Nc2c(O)c3c(n(Cc4c(C)cccc4Cl)c2=O)CCC3)cc1	Condition not met

Q: Quick check: does Cc1cn(Cc2ccccc2Cl)c(=O)c(NC(=O)NC(CC(=O)O)c2ccc(-c3ccccc3)cc2)c1O (centres unmarked) have pIC50 greater than or equal to 8?
Ans: Condition not met
